# TESTED SYSTEM: ATM (Homo sapiens)
# Construct: endogenous in cells
# PROCEDURE SUMMARY: ATM cellular potency assay (pATM Ser1981 in irradiated HT29 cells)
# RECORDED CONDITIONS: 1 h compound, X-ray irradiation, pATM (Ser1981); Table 2; read-out: Assay a) ATM Cell IC50
READOUT KIND: IC50 (nM)
Please reply with the bare figure in nM and do not write the unit itself.

Past entries and their recorded results:
1) CN(C)[C@@H]1CCN(c2ccc(-c3ccc4ncc5c(c4c3)n([C@H]3CCCOC3)c(=O)n5C)cn2)C1	0.842
2) CO[C@@H]1CCC[C@H](n2c(=O)n(C)c3cnc4ccc(-c5ccc(N6CC[C@@H](N(C)C)C6)nc5)cc4c32)C1 (single isomer, unassigned) [Example 47]	2.7
3) CN(C)C1CCN(c2ccc(-c3ccc4ncc5c(c4c3)n(C3COC3)c(=O)n5C)cn2)CC1	3.91
4) CN(C)C1CN(c2ccc(-c3ccc4ncc5c(c4c3)n(C3CCC3)c(=O)n5C)cn2)C1	9.29
5) CN(C)[C@H]1CCN(c2ccc(-c3cc4c(cc3F)ncc3c4n([C@H]4CCCOC4)c(=O)n3C)cn2)C1	36.5
6) CO[C@H]1CC[C@H](n2c(=O)n(C)c3cnc4cc(F)c(-c5ccc(N6CC(N(C)C)C6)nc5)cc4c32)C1 (single isomer, unassigned) [Example 29]	9.68

Ask: Dear colleague, I am looking for the recorded IC50 of the following molecule: CO[C@H]1CCC[C@H](n2c(=O)n(C)c3cnc4ccc(-c5ccc(N6CC(N(C)C)C6)nc5)cc4c32)C1 (single isomer, unassigned) [Example 55]
Result: 3.38

Ask: So what does the record say about IC50 for CO[C@H]1C[C@@H](n2c(=O)n(C)c3cnc4ccc(-c5ccc(N6CC[C@@H](N(C)C)C6)nc5)cc4c32)C1 ?
Result: 0.752

Ask: Which IC50 value is on record for CN(C)C1CN(c2ccc(-c3ccc4ncc5c(c4c3)n([C@@H]3CCCOC3)c(=O)n5C)cn2)C1 ?
Result: 5.9

Ask: What does the data say about its IC50? Entry: CN(C)C1CCN(c2ccc(-c3ccc4ncc5c(c4c3)n(C3CCC3)c(=O)n5C)cn2)CC1
Result: 0.911

Ask: Given the molecule CO[C@H]1CC[C@H](n2c(=O)n(C)c3cnc4ccc(-c5ccc(N6CC[C@@H](N(C)C)C6)nc5)cc4c32)CC1 , what is its reported IC50?
Result: 0.434

Ask: What value of IC50 has been recorded for this entry: CO[C@H]1C[C@@H](n2c(=O)n(C)c3cnc4cc(F)c(-c5ccc(N6CCC[C@@H](N(C)C)C6)nc5)cc4c32)C1
Result: 72

Ask: IC50 for CNC1CCN(c2ccc(-c3ccc4ncc5c(c4c3)n([C@@H]3CCCOC3)c(=O)n5C)cn2)CC1 ?
Result: 2.25

* * *

# TESTED SYSTEM: UniProt P42336
# PROCEDURE SUMMARY: PI3K cellular potency assay (phospho-Akt T308 in BT474 cells, ELISA)
# RECORDED CONDITIONS: 2 h, phospho-Akt (T308); Table 2; read-out: Assay c) PI3Kα Cell IC50
Here the recorded pIC50 is given for each entry.
Entry type: numeric. Quantity: pIC50, the -log10 of concentration in molar units.

// worked examples, pIC50 included
1. CO[C@H]1C[C@@H](n2c(=O)n(C)c3cnc4ccc(-c5ccc(N6CCC(N(C)C)CC6)nc5)cc4c32)C1 [Example 36]	6.01
2. CC(C)n1c(=O)n(C)c2cnc3cc(F)c(-c4ccc(N5CCC(N(C)C)CC5)nc4)cc3c21 [Example 3]	4.71
3. CC(C)n1c(=O)n(C)c2cnc3ccc(-c4ccc(N5CC[C@@H](N(C)C)C5)nc4)cc3c21 [Example 1]	6.33
4. CO[C@H]1CC[C@H](n2c(=O)n(C)c3cnc4ccc(-c5ccc(N6CCC(N(C)C)CC6)nc5)cc4c32)C1 (single isomer, unassigned) [Example 32]	6.18

Please find the next molecule below.
Ask: Requested field: pIC50. Item: CNC1CCN(c2ccc(-c3ccc4ncc5c(c4c3)n([C@H]3C[C@@H](OC)C3)c(=O)n5C)cn2)CC1 [Example 60]
Result: 6.53

* * *

# TESTED SYSTEM: ATM (Homo sapiens)
# Construct: endogenous in cells
# PROCEDURE SUMMARY: ATM cellular potency assay (pATM Ser1981 in irradiated HT29 cells)
# RECORDED CONDITIONS: 1 h compound, X-ray irradiation, pATM (Ser1981); Table 2; read-out: Assay a) ATM Cell IC50
The entries below are paired with their reported pIC50.
Please note pIC50 is a logarithmic value: minus log10 of concentration in mol/L. Answer with that number alone.

1) CO[C@H]1CCC[C@H](n2c(=O)n(C)c3cnc4ccc(-c5ccc(N6CCC(N(C)C)CC6)nc5)cc4c32)C1 (single isomer, unassigned) [Example 53]	9.57
2) CO[C@H]1C[C@@H](n2c(=O)n(C)c3cnc4cc(F)c(-c5ccc(N6CC[C@@H](N(C)C)C6)nc5)cc4c32)C1 [Example 6]	8.77
3) CN(C)[C@H]1CCN(c2ccc(-c3ccc4ncc5c(c4c3)n([C@H]3CCCOC3)c(=O)n5C)cn2)C1 [Example 17]	7.86

Read the next record carefully.
Ask: Test system ATM (Homo sapiens); read-out pIC50; what value for CN(C)[C@H]1CCN(c2ccc(-c3ccc4ncc5c(c4c3)n([C@@H]3CCCOC3)c(=O)n5C)cn2)C1 [Example 16] ?
Result: 7.73

* * *

# TESTED SYSTEM: ATM (Homo sapiens)
# Construct: endogenous in cells
# PROCEDURE SUMMARY: ATM cellular potency assay (pATM Ser1981 in irradiated HT29 cells)
# RECORDED CONDITIONS: 1 h compound, X-ray irradiation, pATM (Ser1981); Table 2; read-out: Assay a) ATM Cell IC50
pIC50: −log10 of the molar value.
Output Y for pIC50 not less than 9; output N otherwise.

1. CN(C)[C@@H]1CCN(c2ccc(-c3ccc4ncc5c(c4c3)n(C3CCOCC3)c(=O)n5C)cn2)C1	N
2. CN(C)C1CN(c2ccc(-c3ccc4ncc5c(c4c3)n(C3CCOCC3)c(=O)n5C)cn2)C1	N
3. CO[C@H]1CCC[C@H](n2c(=O)n(C)c3cnc4ccc(-c5ccc(N6CCC(N(C)C)CC6)nc5)cc4c32)C1 (single isomer, unassigned) [Example 54]	Y
4. CO[C@@H]1CCC[C@H](n2c(=O)n(C)c3cnc4ccc(-c5ccc(N6CC(N(C)C)C6)nc5)cc4c32)C1 (single isomer, unassigned) [Example 49]	N
5. CO[C@H]1CC[C@H](n2c(=O)n(C)c3cnc4cc(F)c(-c5ccc(N6CC(N(C)C)C6)nc5)cc4c32)C1 (single isomer, unassigned) [Example 30]	N

Ask: Determine whether this compound has pIC50 no lower than 9: CO[C@@H]1CCC[C@H](n2c(=O)n(C)c3cnc4ccc(-c5ccc(N6CC[C@@H](N(C)C)C6)nc5)cc4c32)C1 (single isomer, unassigned) [Example 48]
Result: N

Ask: Tell me whether pIC50 is at least 9 here: CNC1CCN(c2ccc(-c3ccc4ncc5c(c4c3)n([C@H]3C[C@@H](OC)C3)c(=O)n5C)cn2)CC1
Result: Y

Ask: # bool: pIC50 of CO[C@H]1CC[C@H](n2c(=O)n(C)c3cnc4ccc(-c5ccc(N6CCC(N(C)C)CC6)nc5)cc4c32)C1 (single isomer, unassigned) [Example 32] >= 9
Result: Y

* * *

# TESTED SYSTEM: PI3Kα (Homo sapiens)
# PROCEDURE SUMMARY: PI3K cellular potency assay (phospho-Akt T308 in BT474 cells, ELISA)
# RECORDED CONDITIONS: 2 h, phospho-Akt (T308); Table 2; read-out: Assay c) PI3Kα Cell IC50
READOUT KIND: pIC50
Answer as the number alone; pIC50 is minus log10 of concentration in mol/L.

1) CO[C@H]1CC[C@H](n2c(=O)n(C)c3cnc4ccc(-c5ccc(N6CCC(N(C)C)CC6)nc5)cc4c32)C1 (single isomer, unassigned) [Example 33]	5.96

Ask: Which pIC50 value is on record for CN(C)[C@@H]1CCN(c2ccc(-c3ccc4ncc5c(c4c3)n([C@@H]3CCCOC3)c(=O)n5C)cn2)C1 [Example 7] ?
Result: 5.91

Ask: Tell me the measured pIC50 of CC(C)n1c(=O)n(C)c2cnc3ccc(-c4ccc(N5CC(N(C)C)C5)nc4)cc3c21 [Example 4] , please.
Result: 6.61

* * *

Property: IC50; scope: individual molecules
# TESTED SYSTEM: ATR (Homo sapiens)
# Construct: endogenous in cells; host or cells: HT29 cells (ECACC #85061109)
# Sequence (Q13535 whole entry): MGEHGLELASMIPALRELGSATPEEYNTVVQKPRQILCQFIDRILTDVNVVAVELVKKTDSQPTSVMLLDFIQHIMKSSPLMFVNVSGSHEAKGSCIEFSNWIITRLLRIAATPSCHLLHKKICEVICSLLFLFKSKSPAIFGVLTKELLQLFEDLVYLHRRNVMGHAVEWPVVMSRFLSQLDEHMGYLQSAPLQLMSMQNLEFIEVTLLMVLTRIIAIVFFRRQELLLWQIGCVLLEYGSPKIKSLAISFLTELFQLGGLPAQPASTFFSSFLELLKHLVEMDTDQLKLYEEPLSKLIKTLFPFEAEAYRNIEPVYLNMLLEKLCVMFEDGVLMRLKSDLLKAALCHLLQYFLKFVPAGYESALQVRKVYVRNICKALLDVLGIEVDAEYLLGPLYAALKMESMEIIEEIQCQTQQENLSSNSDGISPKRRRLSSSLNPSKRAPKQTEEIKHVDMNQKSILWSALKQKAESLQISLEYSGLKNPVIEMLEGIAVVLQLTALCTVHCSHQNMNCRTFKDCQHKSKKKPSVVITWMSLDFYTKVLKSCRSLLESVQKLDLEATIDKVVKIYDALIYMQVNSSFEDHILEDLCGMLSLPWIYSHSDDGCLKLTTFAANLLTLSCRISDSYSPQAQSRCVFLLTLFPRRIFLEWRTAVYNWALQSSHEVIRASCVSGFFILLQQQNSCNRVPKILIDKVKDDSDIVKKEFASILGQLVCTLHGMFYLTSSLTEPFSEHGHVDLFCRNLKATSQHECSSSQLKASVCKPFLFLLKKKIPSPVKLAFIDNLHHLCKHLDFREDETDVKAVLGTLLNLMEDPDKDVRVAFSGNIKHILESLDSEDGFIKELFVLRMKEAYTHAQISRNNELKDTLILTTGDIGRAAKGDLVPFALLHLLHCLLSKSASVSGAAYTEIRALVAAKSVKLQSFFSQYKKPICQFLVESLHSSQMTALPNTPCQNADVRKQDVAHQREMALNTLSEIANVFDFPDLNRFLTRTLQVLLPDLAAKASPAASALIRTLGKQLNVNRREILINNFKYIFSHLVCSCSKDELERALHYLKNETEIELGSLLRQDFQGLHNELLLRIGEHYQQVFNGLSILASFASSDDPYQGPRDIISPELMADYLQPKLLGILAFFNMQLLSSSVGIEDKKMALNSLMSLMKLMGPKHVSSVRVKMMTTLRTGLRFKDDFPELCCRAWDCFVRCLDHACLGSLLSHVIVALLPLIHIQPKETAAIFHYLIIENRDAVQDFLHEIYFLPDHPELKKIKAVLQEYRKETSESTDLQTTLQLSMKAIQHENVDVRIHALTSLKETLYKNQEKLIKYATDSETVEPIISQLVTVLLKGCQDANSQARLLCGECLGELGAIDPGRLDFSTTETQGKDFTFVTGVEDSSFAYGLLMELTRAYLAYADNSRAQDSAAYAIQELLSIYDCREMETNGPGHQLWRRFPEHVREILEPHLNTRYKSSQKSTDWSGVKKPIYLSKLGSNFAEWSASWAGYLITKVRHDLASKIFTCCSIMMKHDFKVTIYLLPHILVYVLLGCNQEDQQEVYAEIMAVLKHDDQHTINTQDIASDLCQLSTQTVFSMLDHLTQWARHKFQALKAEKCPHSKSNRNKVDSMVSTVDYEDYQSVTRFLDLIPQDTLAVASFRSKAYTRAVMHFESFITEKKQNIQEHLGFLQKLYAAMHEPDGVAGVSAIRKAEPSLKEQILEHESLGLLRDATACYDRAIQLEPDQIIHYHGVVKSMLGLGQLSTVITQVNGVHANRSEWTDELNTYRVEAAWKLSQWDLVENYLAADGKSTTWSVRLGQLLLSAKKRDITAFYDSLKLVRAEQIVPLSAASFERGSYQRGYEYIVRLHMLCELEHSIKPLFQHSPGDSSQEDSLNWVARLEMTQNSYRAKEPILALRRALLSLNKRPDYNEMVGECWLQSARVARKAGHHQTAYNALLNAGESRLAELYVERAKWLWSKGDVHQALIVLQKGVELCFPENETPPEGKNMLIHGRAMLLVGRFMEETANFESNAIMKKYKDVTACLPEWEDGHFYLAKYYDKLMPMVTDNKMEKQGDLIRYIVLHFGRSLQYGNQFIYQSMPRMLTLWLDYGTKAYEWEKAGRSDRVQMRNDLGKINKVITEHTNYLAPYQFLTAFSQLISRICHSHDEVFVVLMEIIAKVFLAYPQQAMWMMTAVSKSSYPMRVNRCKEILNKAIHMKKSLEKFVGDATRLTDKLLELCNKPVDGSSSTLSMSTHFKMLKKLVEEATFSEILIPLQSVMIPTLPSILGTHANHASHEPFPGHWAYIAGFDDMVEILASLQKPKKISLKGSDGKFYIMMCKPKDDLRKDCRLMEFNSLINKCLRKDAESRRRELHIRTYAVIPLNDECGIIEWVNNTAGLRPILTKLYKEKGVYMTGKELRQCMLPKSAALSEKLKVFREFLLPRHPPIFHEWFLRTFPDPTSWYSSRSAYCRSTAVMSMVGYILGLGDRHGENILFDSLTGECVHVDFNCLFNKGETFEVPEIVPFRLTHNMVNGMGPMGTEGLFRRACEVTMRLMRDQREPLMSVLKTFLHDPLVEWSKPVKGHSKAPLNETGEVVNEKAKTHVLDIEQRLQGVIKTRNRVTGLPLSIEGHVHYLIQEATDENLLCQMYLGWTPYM
# Sequence (Q8WXE1 whole entry partner): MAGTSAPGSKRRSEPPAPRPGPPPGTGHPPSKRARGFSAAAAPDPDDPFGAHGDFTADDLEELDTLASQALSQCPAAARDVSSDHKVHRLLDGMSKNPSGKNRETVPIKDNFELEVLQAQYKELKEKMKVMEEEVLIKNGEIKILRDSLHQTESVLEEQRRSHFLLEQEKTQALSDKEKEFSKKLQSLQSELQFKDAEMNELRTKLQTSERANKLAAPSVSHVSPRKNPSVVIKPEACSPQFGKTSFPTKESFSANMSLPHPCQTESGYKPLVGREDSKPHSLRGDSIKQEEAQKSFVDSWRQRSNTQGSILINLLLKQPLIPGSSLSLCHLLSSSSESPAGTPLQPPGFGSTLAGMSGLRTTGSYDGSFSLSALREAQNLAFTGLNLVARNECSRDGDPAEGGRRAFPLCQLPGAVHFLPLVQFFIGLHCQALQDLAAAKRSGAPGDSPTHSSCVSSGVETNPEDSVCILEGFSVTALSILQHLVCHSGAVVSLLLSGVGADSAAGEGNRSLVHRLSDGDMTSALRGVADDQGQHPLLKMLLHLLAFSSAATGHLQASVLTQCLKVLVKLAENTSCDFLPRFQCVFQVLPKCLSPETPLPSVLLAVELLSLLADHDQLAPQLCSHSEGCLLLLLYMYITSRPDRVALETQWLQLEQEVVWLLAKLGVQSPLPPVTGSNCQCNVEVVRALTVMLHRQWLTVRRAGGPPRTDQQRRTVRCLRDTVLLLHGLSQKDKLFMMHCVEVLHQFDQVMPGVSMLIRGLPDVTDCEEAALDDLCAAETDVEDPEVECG
# PROCEDURE SUMMARY: ATR cellular potency assay (pChk1 Ser345 in HT29 cells after 4NQO)
# Assay type: cell-based
# RECORDED CONDITIONS: pChk1 (Ser 345); Table 2; read-out: Assay b) ATR Cell IC50

Ask: # get_value(readout='IC50', item= CN(C)C1CCN(c2ccc(-c3ccc4ncc5c(c4c3)n(C3CCC3)c(=O)n5C)cn2)CC1 )
Result: > 30 µM

Ask: Field request: IC50 | item: CO[C@H]1C[C@@H](n2c(=O)n(C)c3cnc4ccc(-c5ccc(N6CC[C@@H](N(C)C)C6)nc5)cc4c32)C1
Result: 3.21 µM

Ask: Could you tell me which IC50 is on file for CO[C@H]1C[C@@H](n2c(=O)n(C)c3cnc4cc(F)c(-c5ccc(N6CC[C@@H](N(C)C)C6)nc5)cc4c32)C1 ?
Result: > 30 µM

Ask: I would be grateful if you could share the reported IC50 for CO[C@H]1CCC[C@H](n2c(=O)n(C)c3cnc4ccc(-c5ccc(N6CCC(N(C)C)CC6)nc5)cc4c32)C1 (single isomer, unassigned) [Example 54] .
Result: > 25.6 µM

Ask: Which IC50 is reported for this molecule? CN(C)C1CCN(c2ccc(-c3ccc4ncc5c(c4c3)n(C3COC3)c(=O)n5C)cn2)CC1
Result: > 30 µM

Ask: Name the reported IC50 value associated with the molecule CO[C@H]1CC[C@H](n2c(=O)n(C)c3cnc4ccc(-c5ccc(N6CC(N(C)C)C6)nc5)cc4c32)C1 (single isomer, unassigned) [Example 23]
Result: > 24 µM
